- TARGET_DESC: T1, human PD-L1 expressed on CHO-K1 cells (Genscript, Cat #M00543) (human, UniProt Q9NZQ7 19-290)
- T1 construct: also called PD-L1 cell line
- METHOD_SUMMARY: FACS competition vs biotin-PD-1-Fc on CHO-K1/human PD-L1 cells
RESULT_TYPE: IC50 (nM)
Please respond with the number in nM and leave the unit unwritten.

53C1_chimeric (antibody, human IgG1, kappa, N297A, V domains shown, Human IgG1 with effector-less Fc mutations, human kappa; also called chimeric 53C1F3D4) VH: QVQLQQSGNELARPGASVRLSCKASGYIFTGYGITWVRQRPGQGLEWIGEIFPRRVNTYYSEKFKGRATLTADISSSTAYMELRSLTSEDSAVYFCARDYDPYFALDYWGQGTSVTVSS VL: DIVMTQSHKFMSTSVGDRVSITCKASQDVSTAVDWYQQKPGQSPKLLIYSASYRYTGVPDRFTGSGSGTAFTFTISGEQAEDLAVYYCQQHYSIPFTFGGGTKLEIKR ... 0.59

// switching to the query binder
Challenge: Which IC50 reading was recorded for the binder 25G1F9F8 (antibody, V domains shown, Mouse mAb from hybridoma culture) VH: EGQLQQSGAELVKPGASVNLSCTASGFNIKDTYIHWVKQRPDQGLEWIGRIAPTNGNAKFHPTFQGKATITADTSSNTAYLQLSSLTSEDTAVYYCTRGGIYYYGTHWYFDVWGAGTTVTVSS VL: DVLMNQTPLSLPVSLGDQASISCRSSQNIVYSDGNTYLEWYLQKPGQSPKLLIFQVSNRFSGVPDRFSGSGSGTDFTLKISRVEAEDLGFYYCFQGSHVPFTFGSGTKLEIK ?
Response given: 13.8
